- assayed-system: UniProt P08659
- Sequence (P08659 whole entry, species assumed): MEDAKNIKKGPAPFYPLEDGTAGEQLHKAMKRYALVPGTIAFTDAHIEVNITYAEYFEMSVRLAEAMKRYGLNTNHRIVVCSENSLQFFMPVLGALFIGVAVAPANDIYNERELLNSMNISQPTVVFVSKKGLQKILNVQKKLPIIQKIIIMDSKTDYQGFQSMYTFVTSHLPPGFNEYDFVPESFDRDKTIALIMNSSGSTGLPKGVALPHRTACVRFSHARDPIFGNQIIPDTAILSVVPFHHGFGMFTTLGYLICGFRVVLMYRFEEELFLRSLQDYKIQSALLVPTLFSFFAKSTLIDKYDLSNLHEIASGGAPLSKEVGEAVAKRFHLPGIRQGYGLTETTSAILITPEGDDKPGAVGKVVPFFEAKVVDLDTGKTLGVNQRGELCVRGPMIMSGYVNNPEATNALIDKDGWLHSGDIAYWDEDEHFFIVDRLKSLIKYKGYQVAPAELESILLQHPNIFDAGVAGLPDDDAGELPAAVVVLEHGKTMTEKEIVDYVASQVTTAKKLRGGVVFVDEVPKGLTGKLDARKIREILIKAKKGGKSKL
- assay-summary: Luminescence characteristics with firefly luciferase (Example 3)
- Assay type: biochemical
- test-conditions: calculated on the basis of the intensity obtained for aminoluciferin
Label class 1 when relative intensity is at or above 40; anything below gets class 0.

QUERY: Tell me whether relative intensity is at least 40 here: Nc1ccc2nc(C3=N[C@@H](C(=O)O)CS3)sc2c1 [aminoluciferin, reference compound]
RESULT: class 1

QUERY: Now the same for O=C(O)C1CSC(c2nc3ccc(NCCCc4ccccc4)cc3s2)=N1 (stereo not drawn)
RESULT: class 1

QUERY: Now the same for CN(C)c1ccc2nc(C3=NC(C(=O)O)CS3)sc2c1 (stereo not drawn)
RESULT: class 1

QUERY: Now the same for O=C(O)C1CSC(c2nc3ccc(NCCc4ccccc4)cc3s2)=N1 (stereo not drawn)
RESULT: class 0

QUERY: Now the same for CNc1ccc2nc(C3=NC(C(=O)O)CS3)sc2c1 (stereo not drawn)
RESULT: class 1

QUERY: Now the same for O=C(O)C1CSC(c2nc3ccc(NCc4ccccc4)cc3s2)=N1 (stereo not drawn)
RESULT: class 0
